Test system: XF498
Assay: NCI tumour cell line growth inhibition, 48 h
Active and inactive are the calls of the source. Rule as the data show it: active = GI50 up to about 1.1 µM and inactive = higher.
Kindly state GI50 for each of the entries shown.

Before answering, review these 2 worked examples.
ITEM_SMILES	GI50
COc1ccc2nc3cc(Cl)ccc3c(Sc3ccc([N+](=O)[O-])cc3)c2c1	> 10 µM (inactive)
CC(C)(C)c1cc(C(OCCl)(C(F)(F)F)C(F)(F)F)c2c(c1)C(C(F)(F)F)(C(F)(F)F)OC21c2ccccc2C(=O)c2ccccc21	34 µM (inactive)

Continue with the compound presented below.
[ask] # get_value(readout='GI50', item= O=S(=O)(O)c1cc(O)c2c(O)c(/N=N/c3ccc(/C=C/c4ccc(/N=N/c5c(S(=O)(=O)O)cc6cc(S(=O)(=O)O)cc(O)c6c5O)cc4S(=O)(=O)O)c(S(=O)(=O)O)c3)c(S(=O)(=O)O)cc2c1 )
[reply] > 100 µM (inactive)

====

Test system: SNB-75
Test: NCI tumour cell line growth inhibition, 48 h
Calls of active or inactive are those of the source. Rule as the data show it: active = GI50 up to about 1.1 µM and inactive = higher.
Kindly state GI50 for each of the entries shown.

COMPOUND	TESTED_ON	MEASUREMENT_NAME	VALUE_REPORTED
CCOC(=O)n1ccc2c(C(=O)OC)c(C(=O)OC)cc(/C(=C/C(=O)OC)C(=O)OC)c21	SNB-75	GI50	> 100 µM (inactive)
CC(C)(C)CC(C)(C)c1cc(O)c(O)c(CN2CCCCC2)c1	SNB-75	GI50	17.7 µM (inactive)
CC(C)OCC1CC(CC(=O)Nc2nncs2)C(=O)O1 (stereo not drawn)	SNB-75	GI50	> 100 µM (inactive)
CC(C)C1OC2(C)OC(=N)C1(C#N)C(C#N)(C#N)C2C (stereo not drawn)	SNB-75	GI50	32.1 µM (inactive)
Cc1ccccc1CN1CC2=C(CCN(Cc3ccccc3)C2=O)N2CCN=C12	SNB-75	GI50	6.08 µM (inactive)
O=C(/C=C/c1ccccc1Cl)c1ccc(Cl)cc1Cl	SNB-75	GI50	18.7 µM (inactive)

Give me GI50 for each of these compounds, listed below.
1. CC(C)(C)c1nc2c(o1)/C(=N\c1ccc(F)cc1)c1ccccc1C2=O
2. Clc1ccc(CCn2cncn2)cc1
3. CC(C)(c1ccccc1)c1ccc(Oc2ccc(C#N)c(C#N)c2)cc1

[reply]
6.79 µM (inactive)
86.3 µM (inactive)
> 10 µM (inactive)

Give me GI50 for each of these compounds, listed below.
1. COC(=O)c1ccccc1C1CN=NC12Cc1c(C)c3c(c(C)c1C2=O)CCC3 (stereo not drawn)
2. Cc1cn(Cc2ccccc2CCO)c(=S)[nH]c1=O

[reply]
40.6 µM (inactive)
> 100 µM (inactive)

Give me GI50 for each of these compounds, listed below.
1. NC(CCC(=O)O)C(=O)NC(Cc1ccc(N(CCCl)CCCl)cc1)C(=O)O (stereo not drawn)
2. CCCCCCCCCCCCCCCC(=O)OCC1OC(OC)C(NC(=O)N(CCCl)N=O)C(O)C1O (stereo not drawn)
3. CCOC(=O)C(Cl)(NC(=O)OCc1ccccc1)C(F)(F)F (stereo not drawn)
4. N=S(c1ccccc1[N+](=O)[O-])c1ccccc1[N+](=O)[O-]
5. Cc1cc(C)nc(NS(=O)(=O)c2ccc(NC(=O)c3cccc4c(Nc5ccc(S(=O)(=O)Nc6nc(C)cc(C)n6)cc5)c5ccc(Cl)cc5nc34)cc2)n1
6. CCOC(=O)/C(C(N)=O)=C(O)/C(O)=C(\Br)C(=O)c1ccccc1
7. O=c1cc(N2CCOCC2)[nH]c(=O)n1-c1ccc(F)cc1
8. COc1cc(CC(C)N)ccc1O (stereo not drawn)

[reply]
1. > 100 µM (inactive)
2. 7 µM (inactive)
3. > 100 µM (inactive)
4. 7.94 µM (inactive)
5. 17.1 µM (inactive)
6. 17.3 µM (inactive)
7. > 100 µM (inactive)
8. > 100 µM (inactive)

Give me GI50 for each of these compounds, listed below.
1. COc1ccc(C2[C@H]3C(=O)N(c4ccc(Cc5ccc(N6C(=O)[C@@H]7ON(c8ccccc8)C(c8ccc(OC)cc8)[C@@H]7C6=O)cc5)cc4)C(=O)[C@H]3ON2c2ccccc2)cc1 (stereo partly drawn)
2. COc1ccc2c(c1)CCc1c-2[nH]c2ccc(OC)cc12
3. CC1CN(c2ccc(Cl)cc2)CC(C)(C)OC(=O)O1 (stereo not drawn)

[reply]
> 100 µM (inactive)
> 100 µM (inactive)
> 100 µM (inactive)

Give me GI50 for each of these compounds, listed below.
1. O=S(=O)(c1ccccc1)C1(C2(S(=O)(=O)c3ccccc3)CCN=N2)CCN=N1 (stereo not drawn)
2. CC1=C(C(=O)NCc2ccccc2)C(c2ccc(N(C)C)cc2)C(C(=O)NCc2ccccc2)=C(C)N1

[reply]
["> 100 µM (inactive)", "29.3 µM (inactive)"]

Give me GI50 for each of these compounds, listed below.
1. COC(=O)CNCC1OC2OC(C)(C)OC2C1N=[N+]=[N-] (stereo not drawn)
2. Cc1occc(=O)c1O
3. CCOC(=O)C(O)(NC(C)=O)C(F)(F)F (stereo not drawn)
4. O=c1c2cc([N+](=O)[O-])ccc2sc2ccsc12
5. C=CCSc1nc2ccccc2c(=O)n1Cc1ccco1
6. CCOP(=O)(OCC)C(C)(CC)N/C(N)=N/C#N (stereo not drawn)
7. COc1ccc2nc3cc(Cl)ccc3c(Sc3ccc([N+](=O)[O-])cc3)c2c1
8. O=C1C2C3CCC(C2C(=O)N1CO)C1C2C(=O)N(CO)C(=O)C2C31 (stereo not drawn)

[reply]
1: > 100 µM (inactive); 2: > 100 µM (inactive); 3: > 100 µM (inactive); 4: > 100 µM (inactive); 5: 89.1 µM (inactive); 6: > 100 µM (inactive); 7: 34.1 µM (inactive); 8: 50.6 µM (inactive)

Give me GI50 for each of these compounds, listed below.
1. Cc1ccc(NC(=O)CCc2nnc3s/c(=C\C=C\c4ccccc4)c(=O)n23)cc1
2. COc1cc2c(cc1OC)NC(=O)NC(Cc1ccc3c(c1)OCO3)CC2 (stereo not drawn)
3. O=Nn1c2ccccc2c2ccccc21
4. Cc1ccc2occ/c(=N\Nc3ccccc3)c2c1
5. COC(=O)C(C/C=C(\C)c1ccccc1)C(C)=O (stereo not drawn)
6. Cc1cc(O)c(C(=O)CC2(O)C(=O)Nc3c(Cl)cc(Cl)cc32)c(=O)o1 (stereo not drawn)
7. COC(=O)C1(O)C(c2ccccc2)=NC2(C)CCCC21 (stereo not drawn)

[reply]
> 83.2 µM (inactive)
24 µM (inactive)
75 µM (inactive)
24.3 µM (inactive)
47.3 µM (inactive)
26.6 µM (inactive)
> 100 µM (inactive)

Give me GI50 for each of these compounds, listed below.
1. CSc1nncc2[nH]c(C)nc12
2. CC(C)(C)COC1C2(OCCO2)C2CCC1(C)C2(C)C (stereo not drawn)
3. CCOP(=O)(OCC)C(C)(CC)N/C(=N\C1=NC(C(F)(F)F)(C(F)(F)F)N=C(C(F)(F)F)O1)NC(NC(C)=O)(C(F)(F)F)C(F)(F)F (stereo not drawn)
4. COC(CN(C(=O)c1ccccc1)C1CCC2(SCCS2)c2[nH]c3ccccc3c21)OC (stereo not drawn)

[reply]
> 100 µM (inactive)
24.1 µM (inactive)
2.3 µM (inactive)
20.2 µM (inactive)

====

Tested on: SN12C
Assay: NCI tumour cell line growth inhibition, 48 h
The source made the active and inactive calls. Cut-off read from the data, not from the text of the source: active = GI50 up to about 1.1 µM and inactive = higher.
In this exercise, the only acceptable responses are yes = active, no = inactive

MOLECULE	LABEL
CCOC(=O)C(Cl)(NC(=O)OCc1ccccc1)C(F)(F)F (stereo not given)	no
CC(O)=NC(Cc1ccc2ccccc2c1)C(O)=NC(Cc1ccc(Cl)cc1)C(O)=NC(Cc1c[nH]c2ccccc12)C(O)=NC(CO)C(O)=NC(Cc1ccc(O)cc1)C(O)=NC(CCCN=C(N)N)C(O)=NC(CC(C)C)C(O)=NC(CCCN=C(N)N)C(=O)N1CCCC1C(O)=NC(C)C(=N)O (stereo not given)	no
Cc1ccc2c(C(=O)c3c(C)n(CCN4CCOCC4)c4ccccc34)cccc2c1	no
Cc1ccc(C)c(NC(=O)C(=O)CC(=O)C2CCOC2=O)c1 (stereo not given)	no
O=C1c2c(n(Cc3ccccc3)c(=O)n2Cc2ccccc2)C(=O)N1Cc1ccccc1	no
O=C(NCCc1ccccc1)[C@H]1CCCC[C@@H]1CCO	no
CCc1nc(N)c2nc(-c3ccc(C#N)cc3)oc2n1	no
N/C(=N/O)c1cn(C2OC(CO)C(O)C2O)c2ncnc(NO)c12 (stereo not given)	yes

[ask] Hello, I am checking results. What call was entered for O=C(CNCc1ccccc1)Oc1c(Cl)c(Cl)c(Cl)c(Cl)c1Cl ?
[reply] no

[ask] Hello, I am checking results. What call was entered for CCCCCCCCC/C=C1\CC(CO)(COC(=O)c2ccccc2)OC1=O (stereo not given) ?
[reply] no

[ask] Hello, I am checking results. What call was entered for COc1ccc(C2C3=C(N=C4SC(C(C)=O)=C(C)N42)c2ccccc2CC3)cc1 (stereo not given) ?
[reply] no
